Method description: Stability of the compound in simulated intestinal fluid (SIF) assessed as compound remaining measured upto 120 mins relative to control
Assay type: ADME
Assay conditions: read-out: Stability
Property name: remaining at 2 h (%)
Give just the numeric value; % need not be written.

Would you mind telling me what remaining at 2 h value was observed for CC1=C(C(=O)NCCc2c[nH]c3ccccc23)C(c2ccc(Cl)c(Cl)c2)C2=C(CC(C)(C)CC2=O)N1 (stereo unspecified) ? 91.1

---

Listed compounds paired with reported fold change (FC)
Study system: UniProt:P19357
Sequence (whole entry): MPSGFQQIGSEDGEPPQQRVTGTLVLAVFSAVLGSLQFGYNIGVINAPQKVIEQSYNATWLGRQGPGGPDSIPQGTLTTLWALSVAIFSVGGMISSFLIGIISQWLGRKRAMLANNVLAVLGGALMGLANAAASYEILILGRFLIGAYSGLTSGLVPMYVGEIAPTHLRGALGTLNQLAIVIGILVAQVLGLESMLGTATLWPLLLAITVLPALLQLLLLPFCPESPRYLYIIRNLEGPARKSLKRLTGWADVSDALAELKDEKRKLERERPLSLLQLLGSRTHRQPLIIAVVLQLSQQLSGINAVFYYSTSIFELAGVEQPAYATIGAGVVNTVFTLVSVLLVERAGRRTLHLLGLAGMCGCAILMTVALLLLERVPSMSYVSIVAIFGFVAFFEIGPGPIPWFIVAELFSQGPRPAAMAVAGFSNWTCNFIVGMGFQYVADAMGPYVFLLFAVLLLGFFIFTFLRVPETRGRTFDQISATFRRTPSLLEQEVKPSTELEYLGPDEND
Method description: Induction of GLUT4 translocation in rat L6-GLUT4myc skeletal muscle cells assessed as translocation to cell surface by measuring fold stimulation at 10 uM measured after 1 hr incubation by antibody-coupled colorimetric assay relative to control
Type: cell-based
Assay conditions: filed as modulator

// worked examples, fold change (FC) included
Compound: CC1=C(C(=O)NCCc2c[nH]c3ccccc23)C(c2c(Cl)cccc2Cl)C2=C(CC(C)(C)CC2=O)N1 (stereo not drawn)
fold change (FC): 0.82
//
Compound: CC1=C(C(=O)Nc2ccccc2)C(c2ccc(Cl)c(Cl)c2)C2=C(CC(C)(C)CC2=O)N1 (stereo not drawn)
fold change (FC): 1.1
//
Compound: COc1ccc2[nH]cc(CCNC(=O)C3=C(C)NC4=C(C(=O)CC(C)(C)C4)C3c3ccc(Cl)c(Cl)c3)c2c1 (stereo not drawn)
fold change (FC): 1.37

Lab note: next compound to report on.
Bench note: what fold change (FC) did COc1ccc(C2C(C(=O)NCCc3c[nH]c4ccccc34)=C(C)NC3=C2C(=O)CC(C)(C)C3)cc1 (stereo not drawn) show? 1.39

---

Method description: Stability of the compound in simulated gastric fluid (SGF) assessed as compound remaining measured upto 120 mins relative to control
Format: ADME
Assay conditions: read-out: Stability
Property name: remaining at 2 h (%)
Numbers only here, please. The scale is %.

Any idea what its remaining at 2 h is? The compound is CC1=C(C(=O)NCCc2c[nH]c3ccccc23)C(c2ccc(Cl)c(Cl)c2)C2=C(CC(C)(C)CC2=O)N1 (stereo unspecified) 90.8

---

Study system: Solute carrier family 2, facilitated glucose transporter member 4 (Rattus norvegicus) (UniProt P19357)
Method description: Induction of GLUT4 translocation in rat L6-GLUT4myc skeletal muscle cells assessed as translocation to cell surface by measuring fold stimulation at 10 uM measured after 1 hr incubation by antibody-coupled colorimetric assay relative to control
Assay type: cell-based
Assay conditions: filed as modulator
Here the recorded fold change (FC) is given for each entry.
No unit in the answer, only the number.

Compound: CC1=C(C(=O)NCCc2c[nH]c3ccccc23)C(c2ccc(O)c(O)c2)C2=C(CC(C)(C)CC2=O)N1 (configuration not stated)
fold change (FC): 0.99

Compound: CC1=C(C(=O)NCCc2c(C)[nH]c3ccccc23)C(c2ccc(Cl)c(Cl)c2)C2=C(CC(C)(C)CC2=O)N1 (configuration not stated)
fold change (FC): 1.42

Compound: CC1=C(C(=O)NCCc2c[nH]c3ccccc23)C(c2ccc(OC(F)(F)F)cc2)C2=C(CC(C)(C)CC2=O)N1 (configuration not stated)
fold change (FC): 2.11

Compound: CC1=C(C(=O)NCCc2c[nH]c3ccccc23)C(c2cccs2)C2=C(CC(C)(C)CC2=O)N1 (configuration not stated)
fold change (FC): 1.09

Compound: CC1=C(C(=O)NCCc2c[nH]c3ccccc23)C(c2ccc(C#N)cc2)C2=C(CC(C)(C)CC2=O)N1 (configuration not stated)
fold change (FC): 0.96

fold change (FC) for Cc1nc2c(c(-c3ccc(Cl)c(Cl)c3)c1C(=O)NCCc1c[nH]c3ccccc13)C(=O)CC(C)(C)C2 ? 1.42

Queued: CC(=O)CC(=O)NCCc1c[nH]c2ccccc12 1.18
